# Lookup of reported combination Emax keyed by entry
Test system: DOK (Oral Cavity Carcinoma)
assay-text: combination Emax (second highest fraction inhibited in the dose matrix, 72 h); higher = more inhibition; extreme values may be limits of the assay
assay-endpoint: combination Emax

>>> observed_result("CC(=O)Nc1cccc(-n2c(=O)n(C3CC3)c(=O)c3c(Nc4ccc(I)cc4F)n(C)c(=O)c(C)c32)c1 [Trametinib] + Cc1nc(-c2cn3c(n2)-c2ccc(-c4cnn(C(C)(C)C(N)=O)c4)cc2OCC3)n(C(C)C)n1 [Taselisib] (first compound max 1 µM, 7x7, partner max 10 µM)")
0.998
>>> observed_result("CN(CCO)CC[C@H](CSc1ccccc1)Nc1ccc(S(=O)(=O)NC(=O)c2ccc(N3CCC([C@@H](O)c4ccccc4-c4ccc(Cl)cc4)CC3)cc2)cc1S(=O)(=O)C(F)(F)F [AZD4320] + Cc1cc2ncnn2cc1Nc1ncc2c(n1)n(C1CCOCC1)c(=O)n2C [AZD7648] (first compound max 1 µM, 7x7, partner max 10 µM)")
0.362
>>> observed_result("C=CCn1c(=O)c2cnc(Nc3ccc(N4CCN(C)CC4)cc3)nc2n1-c1cccc(C(C)(C)O)n1 [AZD1775] + C[C@@H]1COCCN1C2=NC(=NC(=C2)C3(CC3)[S@](=N)(=O)C)C4=C5C=CNC5=NC=C4 [AZD6738] (first compound max 1 µM, partner max 10 µM)")
0.545

The measurements presented in this section are drawn from the supplement of paper PMC11061612.
